tested on: 3T3-L1; experiment: Cytotoxicity against mouse 3T3L1 cells assessed as decrease in cell viability at 40 uM after 48 hrs by MTT assay; assay type: cell-based; conditions: 3t3-l1, 48 h

cpdSmiles | Activity
Cc1noc(C)c1C(=O)N[C@H]1CC[C@@]2(C)[C@@H](C1)C[C@@H](O)[C@@H]1[C@@H]2CC[C@]2(C)[C@@H]([C@H](C)CCC(=O)Nc3cccc(Cl)c3)CC[C@@H]12 | Non-Toxic
CNC(=O)CC[C@@H](C)[C@H]1CC[C@H]2[C@@H]3[C@H](O)C[C@@H]4C[C@@H](NC(=O)c5c(C)noc5C)CC[C@]4(C)[C@H]3CC[C@]12C | Non-Toxic
CC(=O)Nc1ccc(NC(=O)CC[C@@H](C)[C@H]2CC[C@H]3[C@@H]4[C@H](O)C[C@@H]5C[C@@H](NC(=O)c6c(C)noc6C)CC[C@]5(C)[C@H]4CC[C@]23C)cc1 | Toxic
Cc1noc(C)c1C(=O)N[C@H]1CC[C@@]2(C)[C@@H](C1)C[C@@H](O)[C@@H]1[C@@H]2CC[C@]2(C)[C@@H]([C@H](C)CCC(=O)Nc3ccc(Cl)cc3)CC[C@@H]12 | Non-Toxic
Cc1noc(C)c1C(=O)N[C@H]1CC[C@@]2(C)[C@@H](C1)C[C@@H](O)[C@@H]1[C@@H]2CC[C@]2(C)[C@@H]([C@H](C)CCC(=O)NCC(=O)O)CC[C@@H]12 | Non-Toxic
